Recorded values, source the METLIN SMRT retention time set (Domingo-Almenara et al. 2019).

Assay notes: gradient 5% acetonitrile 3 min, to 50% in 2 min, to 85% in 15 min, held 3 min, 100 µL/min
Stated conditions: column: Zorbax Extend-C18 2.1 x 50 mm; eluents: water / acetonitrile, 0.1% formic acid
Would you mind telling me the reported RP-LC retention time of each entry?
Write it as a number; the unit s goes unstated.

Quick check: RP-LC retention time of COC1CCC12CCN(C(=O)c1ccc(Cc3c(C)noc3C)o1)CC2 (stereo not given) ?
800

Quick check: RP-LC retention time of `CCCNc1nnc(-c2nc(C3CC3)no2)c2ccccc12` ?
660

Quick check: RP-LC retention time of `COc1ccc(-c2cc(=S)ss2)cc1` ?
1090

Quick check: RP-LC retention time of `O=C(Nc1ccc(-c2ccn[nH]2)cc1)c1cccnc1` ?
678

Quick check: RP-LC retention time of `Cc1cccc(-c2nc3sc(N4CCCCC4)nn3c2NC(=O)c2ccnn2C)c1` ?
885

Quick check: RP-LC retention time of `Cc1ccc(-c2noc(Cn3cnc4c(cnn4-c4ccc(C(C)C)cc4)c3=O)n2)cc1` ?
1300

Quick check: RP-LC retention time of `CCCc1nc(-c2c(C)cc(C)nc2NC(=O)C2CCCCC2)no1` ?
876

Quick check: RP-LC retention time of CCOC(=O)CCC(=O)NCC1CN(c2ccc(F)cc2)C(=O)O1 (stereo not given) ?
666

Quick check: RP-LC retention time of `O=C(CN1C(=O)CCc2cc(Br)ccc21)Nc1ccc(F)cc1` ?
903

Quick check: RP-LC retention time of `CSc1ccc(-c2nc3cccc(C)n3c2Nc2ccc3c(c2)OCO3)cc1` ?
712

###

Would you mind telling me the reported RP-LC retention time of each entry?
Assay notes: gradient 5% acetonitrile 3 min, to 50% in 2 min, to 85% in 15 min, held 3 min, 100 µL/min
Stated conditions: column: Zorbax Extend-C18 2.1 x 50 mm; eluents: water / acetonitrile, 0.1% formic acid
Write it as a number; the unit s goes unstated.

Quick check: RP-LC retention time of `Fc1ccccc1-c1noc(N2CCCCC2)n1` ?
982

Quick check: RP-LC retention time of `CN(C)c1nc2ncn3c(=O)n(CC(=O)Nc4ccc(F)c(F)c4)nc3c2s1` ?
696

Quick check: RP-LC retention time of COc1ccc(C)cc1NC(=O)N1CCCC1c1cc(C(C)C)on1 (configuration not stated) ?
1050

Quick check: RP-LC retention time of `COCCn1cc(C(=O)Nc2cccc(Cl)c2)c2nn(-c3ccccc3)c(=O)c-2c1` ?
1050

Quick check: RP-LC retention time of `COCc1noc([C@@H]2CC(F)(F)CN2C(=O)c2nccn2C)n1` ?
716

Quick check: RP-LC retention time of O=C(Cc1cccs1)N1CCCC(c2ccnc(-c3ccc(F)cc3)n2)C1 (configuration not stated) ?
1050

Quick check: RP-LC retention time of `Cc1ccc(NC(=O)Cn2c(N3CCCC3)nc(C)cc2=O)cc1` ?
636

###

Assay notes: gradient 5% acetonitrile 3 min, to 50% in 2 min, to 85% in 15 min, held 3 min, 100 µL/min
Stated conditions: column: Zorbax Extend-C18 2.1 x 50 mm; eluents: water / acetonitrile, 0.1% formic acid
Quantity name: RP-LC retention time (s)
Write it as a number; the unit s goes unstated.

Quick check: RP-LC retention time of `Cc1cc(-n2c(C)nc3ccccc3c2=O)ccc1NC(=O)Cc1ccccc1F` ?
798

Quick check: RP-LC retention time of CC(C)(C)C(=O)NC1CCN(C(=O)C2CC2)C1 (stereo not drawn) ?
623

Quick check: RP-LC retention time of `O=C(CSc1nc(N2CCCCC2)nc2ccccc12)Nc1ccc2c(c1)OCCO2` ?
690

###

Assay notes: gradient 5% acetonitrile 3 min, to 50% in 2 min, to 85% in 15 min, held 3 min, 100 µL/min
Stated conditions: column: Zorbax Extend-C18 2.1 x 50 mm; eluents: water / acetonitrile, 0.1% formic acid
Output TRUE for RP-LC retention time not less than 800 s; output FALSE otherwise.

Could you tell me if the measured RP-LC retention time of CC(=O)Nc1ccc(C(=O)NC(C(=O)N2CCCc3ccccc32)c2ccccc2)cc1 (stereo not drawn) reaches 800 s or more?
TRUE

Could you tell me if the measured RP-LC retention time of COC1CN(c2cccc(F)c2)C12CCN(C(=O)C1(c3ccccc3)CC1)CC2 (stereo not drawn) reaches 800 s or more?
TRUE

Could you tell me if the measured RP-LC retention time of `CCN(CC)c1ccc(-c2noc(CN3CCN(c4cccc(C)c4)CC3)n2)cn1` reaches 800 s or more?
TRUE

Could you tell me if the measured RP-LC retention time of `Cc1ccc(-c2nnc(Cc3nc(-c4ccc(Cl)cc4)no3)o2)cc1C` reaches 800 s or more?
TRUE

Could you tell me if the measured RP-LC retention time of COC(=O)c1c(NCC(C)O)c2cc(F)ccc2[nH]c1=O (stereo not drawn) reaches 800 s or more?
FALSE

Could you tell me if the measured RP-LC retention time of `CCCCc1ccc(N2CCn3c2nc2c3c(=O)n(CC(=O)O)c(=O)n2C)cc1` reaches 800 s or more?
TRUE

Could you tell me if the measured RP-LC retention time of `Cn1c(=O)c(SCC(=O)NCCN2CCCCC2)nc2ccccc21` reaches 800 s or more?
FALSE

Could you tell me if the measured RP-LC retention time of `COc1ccc(-c2nc(Cn3ccnc3C)no2)cc1` reaches 800 s or more?
FALSE

Could you tell me if the measured RP-LC retention time of `COc1ccccc1C(=O)Nc1c(-c2ccc(F)cc2)nc2ccccn12` reaches 800 s or more?
FALSE

Could you tell me if the measured RP-LC retention time of `CCn1cc(CCNC(=O)CC(C)C)c2cccnc21` reaches 800 s or more?
FALSE

Could you tell me if the measured RP-LC retention time of Cc1cccc2nnc(N3CCCC(C(=O)Nc4ccc5c(c4)OCO5)C3)n12 (stereo not drawn) reaches 800 s or more?
FALSE

###

Would you mind telling me the reported RP-LC retention time of each entry?
Assay notes: gradient 5% acetonitrile 3 min, to 50% in 2 min, to 85% in 15 min, held 3 min, 100 µL/min
Stated conditions: column: Zorbax Extend-C18 2.1 x 50 mm; eluents: water / acetonitrile, 0.1% formic acid
Write it as a number; the unit s goes unstated.

Quick check: RP-LC retention time of `CCOc1ccc(CNC(=O)CCc2c(-c3ccc(Br)cc3)nc3ccccn23)cc1` ?
717

Quick check: RP-LC retention time of `Cc1nn(CC(=O)NCCN2CCN(Cc3ccccc3)CC2)c(=O)c2noc(C)c12` ?
576

Quick check: RP-LC retention time of `Cn1c(=O)n(CCN2CCCCC2)c(=O)c2c1nc1n2CCCN1c1ccc(Br)cc1` ?
678

###

Assay notes: gradient 5% acetonitrile 3 min, to 50% in 2 min, to 85% in 15 min, held 3 min, 100 µL/min
Stated conditions: column: Zorbax Extend-C18 2.1 x 50 mm; eluents: water / acetonitrile, 0.1% formic acid
Would you mind telling me the reported RP-LC retention time of each entry?
Write it as a number; the unit s goes unstated.

Quick check: RP-LC retention time of COc1ccc(S(=O)(=O)N2CCCC(C(=O)N3CCOCC3)C2)cc1OC (stereo not drawn) ?
681

Quick check: RP-LC retention time of `CCN(CC)C(=O)CN1C(=O)COc2ccc(C(=O)N3CCCCC3)cc21` ?
695

Quick check: RP-LC retention time of Cc1cc2c(cc1S(=O)(=O)N1CCCC1C(=O)N(C)C1CCCCC1)OC(C)C(=O)N2 (stereo not drawn) ?
806

###

Would you mind telling me the reported RP-LC retention time of each entry?
Assay notes: gradient 5% acetonitrile 3 min, to 50% in 2 min, to 85% in 15 min, held 3 min, 100 µL/min
Stated conditions: column: Zorbax Extend-C18 2.1 x 50 mm; eluents: water / acetonitrile, 0.1% formic acid
Write it as a number; the unit s goes unstated.

Quick check: RP-LC retention time of `COc1ccc(CNC(=O)c2c(C)sc3ccn(C)c(=O)c23)c(OC)c1` ?
743

Quick check: RP-LC retention time of `O=C(Cn1c(=O)oc2ccccc21)Nc1nc(-c2ccc(Cl)cc2)cs1` ?
1020

Quick check: RP-LC retention time of `COc1ccc(Cn2nnc(C(=O)N3CCSCC3)c2-n2cccc2)cc1` ?
884

Quick check: RP-LC retention time of `Cc1nc(-c2ccccc2)cc2nn(CC(=O)Nc3ccc(F)cc3Cl)c(=O)n12` ?
967

Quick check: RP-LC retention time of `CCCOc1ccc(C(=O)Nc2nnc(SCc3nnc(-c4ccccc4C)o3)s2)cc1` ?
1110

Quick check: RP-LC retention time of `Cc1nc(-c2ccccc2F)sc1C(=O)NC(C)C` ?
888

Quick check: RP-LC retention time of `COc1ccc(OC)c(S(=O)(=O)N2CCc3nc(-c4ccc(Cl)cc4)ncc3C2)c1` ?
1160

Quick check: RP-LC retention time of CC(Oc1ccc(=O)n(-c2ccc(F)cc2)n1)C(=O)Nc1cccc(F)c1 (stereo not drawn) ?
793

Quick check: RP-LC retention time of CCCN1CCN(C(=O)C2Cc3cc(S(=O)(=O)N(CC)CC)ccc3N2C(C)=O)CC1 (stereo not drawn) ?
610

Quick check: RP-LC retention time of `CCCN(CCC)CC(=O)N1CC(=O)Nc2ccccc21` ?
617

Quick check: RP-LC retention time of `c1ccc(OCc2nc3ccccc3n2CC2CCN(Cc3ccccn3)CC2)cc1` ?
559

Quick check: RP-LC retention time of `CCN(CC)C(=O)c1ccc2c(c1)N(CC(=O)N1CCN(c3ccccn3)CC1)C(=O)CS2` ?
598

Quick check: RP-LC retention time of Cc1nn(C)c(C)c1CNC(=O)CN1C(=O)C2CCCCN2c2ccc(C(=O)N3CCCC3)cc21 (stereo not drawn) ?
654

Quick check: RP-LC retention time of `COc1ccc(OC)c2sc(NC(=O)c3cc(Cl)sc3Cl)nc12` ?
1010

Quick check: RP-LC retention time of `CCOC(=O)c1c(S(=O)(=O)N2CCC(C(=O)NCc3ccccc3)CC2)c(C)n(C)c1C` ?
795

Quick check: RP-LC retention time of `CCOC(=O)c1cnc2ccc(OCC)cc2c1NCCN(C)C` ?
560

Quick check: RP-LC retention time of `C=Cc1ccc(Cn2nc3c(S(=O)(=O)N4CCCCCC4)cccn3c2=O)cc1` ?
999

Quick check: RP-LC retention time of `Cc1ccc2cc(CCC(=O)N3CCC4(CC3)OCCO4)c(=O)[nH]c2c1` ?
688
